The measurements presented in this section are drawn from the supplement of paper PMC13380429.

- Test system: Calu-3
- PROTOCOL DESCRIPTION: cell viability relative to DMSO; higher = less toxic
- CONDITION PARAMETERS: 72 h; 1 nM
QUANTITY NAME: cell viability (%)
Give bare numbers, in %.

Some solved entries appear below for comparison.
O=C(C[S+]([O-])C(c1ccccc1)c1ccccc1)NO (stereo not drawn) : 103
Cc1cc(NC(=O)NCCN2CCC(O)(Cc3ccccc3)CC2)c2ccccc2n1 : 95.3

Prompt: Provide only the value of recorded cell viability for "CC[N+](CC)(CC)CCOc1ccc(/C=C/c2ccccc2)cc1"
Completion: 101

====

- System: Vero E6
- PROTOCOL DESCRIPTION: drug sensitivity score (DSS) for viability; higher = more toxic; extreme values may be limits of the assay
- CONDITION PARAMETERS: 72 h
QUANTITY NAME: drug sensitivity score
Answers are plain numbers.

Some solved entries appear below for comparison.
O=C1OC2(c3ccc(O)cc3Oc3cc(O)ccc32)c2ccccc21 [fluorescein] : 0
CCOc1ccn(-c2ccc(F)cc2)c(=O)c1C(=O)Nc1ccc(Oc2ccnc(N)c2Cl)c(F)c1 : 0.6
NC1(C(=O)N[C@@H](CCO)c2ccc(Cl)cc2)CCN(c2ncnc3[nH]ccc23)CC1 [AZD5363] : 0

Can you give me drug sensitivity score for all of these, one by one?
1. Oc1ccc2ccccc2c1SSc1c(O)ccc2ccccc12 [IPA-3]
2. CC(=O)N[C@H]1[C@@H](O)[C@H](O)[C@@H](CO)O[C@@H]1O [N-acetylmannosamine]

Completion:
[0, 0]

====

- Test system: Calu-3
- PROTOCOL DESCRIPTION: relative viability EC50 (midpoint between 100% and the lowest measured viability); higher = less toxic
- CONDITION PARAMETERS: 72 h
QUANTITY NAME: relative viability EC50

Some solved entries appear below for comparison.
CCC1(C2=NCCN2)Cc2ccccc2O1 (stereo not drawn) : > 10 µM
Cc1cccc(C)c1OCC(=O)N[C@@H](Cc1ccccc1)[C@@H](O)C[C@H](Cc1ccccc1)NC(=O)[C@H](C(C)C)N1CCCNC1=O : > 10 µM
COc1c(C)cnc(Cn2cnc3c(Cl)nc(N)nc32)c1C : 0.538 µM
CC(=O)N[C@H]1[C@@H](O)[C@H](O)[C@@H](CO)O[C@@H]1O : > 10 µM
COc1ccc(CN(CCN(C)C)c2ncccn2)cc1 : > 10 µM

Can you give me relative viability EC50 for all of these, one by one?
1. CCN(CC)CCOc1ccc(Cc2ccccc2)cc1
2. COC(=O)C1=C(C)NC(C)=C(C(=O)OCCN(C)Cc2ccccc2)C1c1cccc([N+](=O)[O-])c1 (stereo not drawn)
3. CC1=C(/C=C/C(=C/C=C/C(C)=C/C(=O)O)c2ccc(C)cc2)C(C)(C)CCC1
4. CCOc1cc(C(C)(C)C)ccc1C1=N[C@@](C)(c2ccc(Cl)cc2)[C@@](C)(c2ccc(Cl)cc2)N1C(=O)N1CCN(CCCS(C)(=O)=O)CC1
5. Cc1onc(-c2c(Cl)cccc2Cl)c1C(=O)N[C@@H]1C(=O)N2[C@@H]1SC(C)(C)[C@@H]2C(=O)O
6. CCCCCCNC(=O)Nc1ccc(S(=O)(=O)Nc2ccc(CCNC[C@H](O)COc3ccc(O)cc3)cc2)cc1

Completion:
["> 10 µM", "> 10 µM", "> 10 µM", "> 10 µM", "> 10 µM", "> 10 µM"]

====

Task for the reader: assign each of the following compounds its reported cell viability.
- Tested on: HepG2
- PROTOCOL DESCRIPTION: cell viability relative to DMSO; higher = less toxic
- CONDITION PARAMETERS: 72 h; 100 nM

Some solved entries appear below for comparison.
COc1cccc(Nc2ncnn3ccc(CN4CC[C@@H](N)[C@H](O)C4)c23)c1 : 102%
CC(O)CC(=O)O (stereo not drawn) [beta-hydroxybutyrate] : 101%
OC(CCCN1CCN(c2ncc(F)cn2)CC1)c1ccc(F)cc1 (centres undefined) : 98.3%
COc1ccc(CN(CCN(C)C)c2ncccn2)cc1 : 97.6%
Cc1cccc(C)c1OCC(=O)N[C@@H](Cc1ccccc1)[C@@H](O)C[C@H](Cc1ccccc1)NC(=O)[C@H](C(C)C)N1CCCNC1=O : 108%

Can you give me cell viability for all of these, one by one?
1. CN[C@@H](C)[C@H]1[C@H](O)C[C@@]2(C)[C@@H]3CC[C@H]4C(C)(C)[C@@H](NC)CC[C@@]45C[C@@]35CC[C@]12C
2. COc1ccccc1N1CCN(CCCCNC(=O)c2ccc(-c3ccc(C(C)=O)cc3)cc2)CC1
3. O=C(Nc1ccccc1)c1cc([N+](=O)[O-])ccc1Cl
4. O=C1N=C(NCc2cccs2)S/C1=C\c1ccc2ncccc2c1
5. NCc1ccccc1CC(=O)N[C@@H]1C(=O)N2C(C(=O)O)=C(CSc3nnnn3CC(=O)O)CS[C@H]12 [ceforanide]
6. O=C1Cc2cc(CCN3CCN(c4nsc5ccccc45)CC3)c(Cl)cc2N1
7. CCS(=O)(=O)N1CCC[C@@H]2CN3CCc4cc(OC)ccc4[C@@H]3C[C@@H]21
8. Cc1nc(N)sc1CCN

Completion:
91.5%
96.4%
90%
90.2%
109%
102%
109%
106%

Can you give me cell viability for all of these, one by one?
1. O=c1c(-c2ccccc2)c1-c1ccccc1
2. COc1ccc2c(C)nc(Nc3nc(C)c(C)c(O)n3)nc2c1
3. CN1C(=O)CC[C@H]1c1cccnc1

Completion:
1. 95.7%
2. 90.9%
3. 106%

Can you give me cell viability for all of these, one by one?
1. COc1cc2nc(N3CCN(C(=O)C4CCCO4)CC3)nc(N)c2cc1OC (centres undefined)
2. COc1cc2c(CCNC(C)=O)c[nH]c2cc1Cl
3. COc1cc2c(NC3CCN(C(C)C)CC3)nc(C3CCCCC3)nc2cc1OCCCN1CCCC1

Completion:
1: 101%; 2: 94.7%; 3: 107%

====

- Tested on: Vero E6
- PROTOCOL DESCRIPTION: cell viability relative to DMSO; higher = less toxic
- CONDITION PARAMETERS: 72 h; 100 nM
QUANTITY NAME: cell viability (%)
Answers are plain numbers, in %.

C[N+]12CCCCC1CCC(=C(c1cccs1)c1cccs1)C2 (configuration not stated) : 98.3

Prompt: Provide only the value of recorded cell viability for "Cc1c(N)nc([C@H](CC(N)=O)NC[C@H](N)C(N)=O)nc1C(=O)N[C@H](C(=O)N[C@H](C)[C@@H](O)[C@H](C)C(=O)N[C@H](C(=O)NCCc1nc(-c2nc(C(=O)NCCCNCCCCN)cs2)cs1)[C@@H](C)O)[C@@H](O[C@@H]1O[C@@H](CO)[C@@H](O)[C@H](O)[C@@H]1O[C@@H]1O[C@H](CO)[C@@H](O)[C@H](OC(N)=O)[C@@H]1O)c1cnc[nH]1"
Completion: 106

====

- System: Vero E6
- PROTOCOL DESCRIPTION: cell viability relative to DMSO; higher = less toxic
- CONDITION PARAMETERS: 72 h; 10 nM
Task for the reader: assign each of the following compounds its reported cell viability.
Numbers only, in %.

COc1cc2ncnc(Nc3ccc(Cl)cc3F)c2cc1OC : 99.2
O=C1CS[C@@H](c2ccccc2Cl)c2cc(Cl)ccc2N1 (racemic) : 97.6
NCCCCN [putrescine] : 112
Cc1cccc(NC(=O)N[C@@H]2N=C(c3ccccc3)c3ccccc3N(C)C2=O)c1 : 102
Cc1cc(C)c(S(=O)(=O)n2cc(C)cc2C)c(C)c1 [HJC-0350] : 99.5

Can you give me cell viability for all of these, one by one?
1. C[C@H]1CCC/C=C/[C@@H]2C[C@H](O)C[C@H]2[C@H](O)/C=C/C(=O)O1 [brefeldin-A]
2. O=C1NC(=O)C(=Cc2ccc(-c3ccc(F)cc3)o2)S1 (stereo in doubt)
3. COc1ccccc1OCCNCC(O)COc1cccc2[nH]c3ccccc3c12 (stereo not given) [carvedilol]
4. CC1(C)CC(Oc2ccc(-c3ccc(-c4cn[nH]c4)cc3O)nn2)CC(C)(C)N1 [LMI070]
5. CN1CCN(C2CCN(C(=O)Nc3cc(Oc4ccc(NC(=O)C5(C(=O)Nc6ccc(F)cc6)CC5)c(F)c4)ccn3)CC2)CC1 [golvatinib]

Completion:
[101, 102, 102, 102, 97.5]

====

Task for the reader: assign each of the following compounds its reported drug sensitivity score.
- Test system: HepG2
- PROTOCOL DESCRIPTION: drug sensitivity score (DSS) for viability; higher = more toxic; extreme values may be limits of the assay
- CONDITION PARAMETERS: 72 h
Numbers only.

Some solved entries appear below for comparison.
Nc1ncc(Cc2ccc(Br)cc2)s1 : 0
CCN(CC)CCOCCOC(=O)C1(c2ccccc2)CCCC1 [carbetapentane] : 0
Cn1cc(-c2ccc(S(=O)(=O)n3ccc(/C=C/C(=O)Nc4ccccc4N)c3)cc2)cn1 [4SC-202] : 10.1
COc1ccccc1OC(=O)c1ccccc1OC(C)=O [guacetisal] : 0
Oc1ccc2ccccc2c1SSc1c(O)ccc2ccccc12 [IPA-3] : 0
COc1ccc2cccc(N3CCN(CCNC(=O)c4ccc(F)cc4)CC3)c2c1 : 0

Can you give me drug sensitivity score for all of these, one by one?
1. CCC(=O)O[C@H]1[C@H](O[C@@H]2[C@@H](C)[C@H](O[C@H]3C[C@@](C)(OC)[C@@H](O)[C@H](C)O3)[C@@H](C)C(=O)O[C@H](CC)[C@@](C)(O)[C@H](O)[C@@H](C)C(=O)[C@H](C)C[C@@]2(C)O)O[C@H](C)C[C@@H]1N(C)C [erythromycin-estolate]
2. CN1CCN(C2CCN(C(=O)Nc3cc(Oc4ccc(NC(=O)C5(C(=O)Nc6ccc(F)cc6)CC5)c(F)c4)ccn3)CC2)CC1 [golvatinib]
3. C=CC(=O)Nc1ccc2ncnc(Nc3ccc(OCc4cccc(F)c4)c(Cl)c3)c2c1 [AST-1306]
4. CC(C)(C)n1nc(-c2cccc3ccccc23)c2c(N)ncnc21 [1-naphthyl-PP1]
5. CCCCCCCCCCCCCCCC(=O)OC[C@@H](NC(=O)C(Cl)Cl)[C@H](O)c1ccc([N+](=O)[O-])cc1 [chloramphenicol-palmitate]
6. CCOc1cc(C(C)(C)C)ccc1C1=N[C@@](C)(c2ccc(Cl)cc2)[C@@](C)(c2ccc(Cl)cc2)N1C(=O)N1CCN(CCCS(C)(=O)=O)CC1 [RG7112]
7. Cc1cc(C(C#N)c2ccc(Cl)cc2)c(Cl)cc1NC(=O)c1cc(I)cc(I)c1O (stereo unspecified) [closantel]
8. Cc1cc2c(s1)Nc1ccccc1N=C2N1CCN(C)CC1 [olanzapine]

Completion:
0
9
4
0.2
0.2
13.7
0
0

Can you give me drug sensitivity score for all of these, one by one?
1. COc1cc2nc(N3CCN(C(=O)C4CCCO4)CC3)nc(N)c2cc1OC (stereo unspecified) [terazosin]
2. COC1(C2=NCCN2)COc2ccccc2O1 (stereo unspecified)

Completion:
0
0
